In this section, each of the compounds is paired with its reported Blood sugar lowering.
# Test system: Rattus norvegicus
# experimental-protocol: Ability to lower blood sugar level at the dose of 25 mg/kg in fasted rats, by using glucose tolerance test(GTT)
# Format: functional
property-measured: Blood sugar lowering (%)

# compound, study-system, value-reported
rows = [
    ("COc1ccc(C#N)cc1C1OC(=O)NC1=O (stereo not drawn)", "Rattus norvegicus", 19),
    ("O=C1NC(=O)C(c2c(Cl)cccc2Cl)O1 (stereo not drawn)", "Rattus norvegicus", 21),
    ("CSc1cccc(F)c1C1OC(=O)NC1=O (stereo not drawn)", "Rattus norvegicus", 18),
    ("Cc1ccc(F)cc1C1OC(=O)NC1=O (stereo not drawn)", "Rattus norvegicus", 19),
    ("CSc1cccc(Cl)c1C1OC(=O)NC1=O (stereo not drawn)", "Rattus norvegicus", 21),
    ("CCSc1cccc(F)c1C1OC(=O)NC1=O (stereo not drawn)", "Rattus norvegicus", 17),
    ("O=C1NC(=O)C(c2c(F)cccc2F)O1 (stereo not drawn)", "Rattus norvegicus", 25),
    ("CCc1ccc(OC)c(C2OC(=O)NC2=O)c1 (stereo not drawn)", "Rattus norvegicus", 10),
    ("O=C1NC(=O)C(c2ccccc2[N+](=O)[O-])O1 (stereo not drawn)", "Rattus norvegicus", 11),
    ("Cl.Nc1ccccc1C1OC(=O)NC1=O (stereo not drawn)", "Rattus norvegicus", 15),
    ("COc1ccc(C2OC(=O)NC2=O)c(OC)c1 (stereo not drawn)", "Rattus norvegicus", 10),
    ("O=C1NC(=O)C(Cc2ccccc2)O1 (stereo not drawn)", "Rattus norvegicus", 9),
    ("CC(C)Oc1cccc(F)c1C1OC(=O)NC1=O (stereo not drawn)", "Rattus norvegicus", 15),
]

* * *

# Test system: Rattus norvegicus
# experimental-protocol: Ability to lower blood sugar level at the dose of 100 mg/kg in fasted rats, by using glucose tolerance test(GTT)
# Type: functional
In this section, each of the compounds is paired with its reported Blood sugar lowering.

# compound, unit-tag, Blood sugar lowering
data = [
    ("O=C1NC(=O)C(c2ccccc2OCc2ccccc2)O1 (stereo unspecified)", "%", 11),
    ("O=C1NC(=O)C(c2ccc3c(c2)OCO3)O1 (stereo unspecified)", "%", 18),
    ("O=C1NC(=O)C(c2cccc(Oc3ccccc3)c2)O1 (stereo unspecified)", "%", 12),
    ("CCOc1ccc(C2OC(=O)NC2=O)cc1 (stereo unspecified)", "%", 18),
    ("O=C1NC(=O)C(c2ccc(F)cc2)O1 (stereo unspecified)", "%", 21),
    ("O=C1NC(=O)C(c2ccc(OCc3ccccc3)cc2)O1 (stereo unspecified)", "%", 20),
    ("Cc1ccc(C2OC(=O)NC2=O)cc1 (stereo unspecified)", "%", 10),
    ("COc1ncccc1C(=O)NCCc1ccc(C2OC(=O)NC2=O)cc1 (stereo unspecified)", "%", 26),
    ("O=C1NC(=O)C(c2cccc(Cl)c2)O1 (stereo unspecified)", "%", 26),
    ("COc1ccc(C2OC(=O)NC2=O)cc1 (stereo unspecified)", "%", 19),
    ("O=C1NC(=O)C(c2ccccc2)O1 (stereo unspecified) [PEMOLINE DIONE]", "%", 35),
]

* * *

In this section, each of the molecules is paired with its reported Blood sugar lowering.
# Test system: Rattus norvegicus
# experimental-protocol: Ability to lower blood sugar level at the dose of 10 mg/kg in fasted rats, by using glucose tolerance test(GTT)
# Assay type: functional

# molecule, Blood sugar lowering (%)
rows = [
    ("COc1ccc(C)cc1C1OC(=O)NC1=O (stereo unspecified)", 21),
    ("COc1c(F)cc(C)cc1C1OC(=O)NC1=O (stereo unspecified)", 17),
    ("O=C1NC(=O)C(c2c(F)cccc2Cl)O1 (stereo unspecified)", 12),
    ("O=C1NC(=O)C(c2cccc(F)c2)O1 (stereo unspecified)", 10),
    ("COc1cccc(C)c1C1OC(=O)NC1=O (stereo unspecified)", 10),
    ("O=C1NC(=O)C(c2ccccc2C(F)(F)F)O1 (stereo unspecified)", 11),
]
